System: HeLa S3 cells
Test: Cell growth inhibition test on HeLa S3 cells
Type: cell-based
Conditions: Homo sapiens, HeLa S3, 72 h, read-out: IC50, cell growth inhibition activity upon HeLa S3 cells
pIC50: −log10 of the molar value.
Property: pIC50; scope: individual molecules
Measurement Label: pIC50

| Chemical Smiles | Measured On | Measurement Label | Numeric Result |
| --- | --- | --- | --- |
| C[C@@H]1C[C@H]2O[C@@H]2/C=C\C=C\C(=NO)Cc2c(Cl)c(O[Si](C)(C)C(C)(C)C)cc(O[Si](C)(C)C(C)(C)C)c2C(=O)O1 | HeLa S3 cells | pIC50 | 6.92 |
| C[C@@H]1C[C@H]2O[C@@H]2/C=C\C=C\C(=O)Cc2c(Cl)c(O)cc(O)c2C(=O)O1 | HeLa S3 cells | pIC50 | 5.17 |

###

Test system: intracellular tyrosine kinase (v-Src tyrosine kinase, SR-3Y1 cells)
Assay: Inhibition test of intracellular tyrosine kinase (tyrosine phosphorylation, Western blotting, SR-3Y1 cells)
Format: cell-based
Settings: Rattus norvegicus, SR3Y1, 37° C., 15 hours, tyrosine-phosphorylated protein, read-out: IC50, inhibitory activity of intracellular tyrosine kinase
pIC50: −log10 of the molar value.
Measurement Label: pIC50

| Chemical Smiles | Censor Symbol | Numeric Result |
| --- | --- | --- |
| C[C@@H]1C[C@H]2O[C@@H]2/C=C\C=C\C(=NO)Cc2c(Cl)c(O)cc(O)c2C(=O)O1 | = | 7.70 |
| CON=C1/C=C/C=C\[C@H]2O[C@@H]2C[C@@H](C)OC(=O)c2c(O)cc(O)c(Cl)c2C1 | > | 7.30 |
| C[C@@H]1C[C@H]2O[C@@H]2/C=C\C=C\C(=O)Cc2c(Cl)c(O[Si](C)(C)C(C)(C)C)cc(O[Si](C)(C)C(C)(C)C)c2C(=O)O1 | = | 6.82 |
| C[C@@H]1C[C@H]2O[C@@H]2/C=C\C=C\C(=NO)Cc2c(Cl)c(O[Si](C)(C)C(C)(C)C)cc(O[Si](C)(C)C(C)(C)C)c2C(=O)O1 | = | 7.70 |
| C[C@@H]1C[C@H]2O[C@@H]2/C=C\C=C\C(=O)Cc2c(Cl)c(O)cc(O)c2C(=O)O1 | = | 6.74 |
| C[C@@H]1C[C@H]2O[C@@H]2/C=C\C=C\C(=NOCCCN=[N+]=[N-])Cc2c(Cl)c(O)cc(O)c2C(=O)O1 | > | 7.30 |

###

Test system: HeLa S3 cells
Assay: Cell growth inhibition test on HeLa S3 cells
Type: cell-based
Conditions: Homo sapiens, HeLa S3; 72 hours, 37° C., Neutral Red; read-out: IC50, cell growth inhibition activity upon HeLa S3 cells
Quick reference: IC50 of the listed items.

| Molecule | IC50 |
| --- | --- |
| C[C@@H]1C[C@H]2O[C@@H]2/C=C\C=C\C(=NO)Cc2c(Cl)c(O)cc(O)c2C(=O)O1 | 90 nM |
| CON=C1/C=C/C=C\[C@H]2O[C@@H]2C[C@@H](C)OC(=O)c2c(O)cc(O)c(Cl)c2C1 | 50 nM |
| C[C@@H]1C[C@H]2O[C@@H]2/C=C\C=C\C(=NOCCCN=[N+]=[N-])Cc2c(Cl)c(O)cc(O)c2C(=O)O1 | 50 nM |
| COCON=C1/C=C/C=C\[C@H]2O[C@@H]2C[C@@H](C)OC(=O)c2c(O)cc(O)c(Cl)c2C1 | 20 nM |
| CC(=O)Oc1cc(OC(C)=O)c2c(c1Cl)CC(=O)/C=C/C=C\C(Cl)[C@H](OC=O)C[C@@H](C)OC2=O (some centres unmarked) | 5000 nM |
| CC1CC(OS(=O)OC2CC(C)OC(=O)c3c(O)cc(O)c(Cl)c3CC(=O)C=CC=CC2Cl)C(Cl)C=CC=CC(=O)Cc2c(Cl)c(O)cc(O)c2C(=O)O1 (centres unmarked) | 6000 nM |
| C[C@@H]1C[C@H]2O[C@@H]2/C=C\C=C\C(=O)Cc2c(Cl)c(O[Si](C)(C)C(C)(C)C)cc(O[Si](C)(C)C(C)(C)C)c2C(=O)O1 | 3200 nM |
| CC(=O)Oc1cc(OC(C)=O)c2c(c1Cl)CC(=O)C=CC=CC(Cl)C(OS(=O)OC1CC(C)OC(=O)c3c(OC(C)=O)cc(OC(C)=O)c(Cl)c3CC(=O)C=CC=CC1Cl)CC(C)OC2=O (centres unmarked) | 1500 nM |
